assay: parallel artificial membrane permeability assay-blood-brain barrier (BBB) kit; assay type: in vitro ADME; conditions: PAMPA-BBB, PBS pH 7.2, 18 h, n = 3; read-out: permeability to an artificial brain membrane (Pe)
Items are presented alongside their recorded Papp at 18 h, 500 µM.
Your answer is read as ×10⁻⁶ cm/s, so omit the unit and give the number.

SMILES REPRESENTATION	MEASUREMENT UNITS	Papp at 18 h, 500 µM
Nc1ccncc1F	×10⁻⁶ cm/s	3.11

# Papp at 18 h, 500 µM of `Cc1cncc(F)c1N` = 8.81

###

molecular target: CYP2E1 (Homo sapiens); test: in vitro; conditions: human, IC50 for CYP2E1 inhibition, reads at 60 min, three replicates
Sequence (P05181 whole entry): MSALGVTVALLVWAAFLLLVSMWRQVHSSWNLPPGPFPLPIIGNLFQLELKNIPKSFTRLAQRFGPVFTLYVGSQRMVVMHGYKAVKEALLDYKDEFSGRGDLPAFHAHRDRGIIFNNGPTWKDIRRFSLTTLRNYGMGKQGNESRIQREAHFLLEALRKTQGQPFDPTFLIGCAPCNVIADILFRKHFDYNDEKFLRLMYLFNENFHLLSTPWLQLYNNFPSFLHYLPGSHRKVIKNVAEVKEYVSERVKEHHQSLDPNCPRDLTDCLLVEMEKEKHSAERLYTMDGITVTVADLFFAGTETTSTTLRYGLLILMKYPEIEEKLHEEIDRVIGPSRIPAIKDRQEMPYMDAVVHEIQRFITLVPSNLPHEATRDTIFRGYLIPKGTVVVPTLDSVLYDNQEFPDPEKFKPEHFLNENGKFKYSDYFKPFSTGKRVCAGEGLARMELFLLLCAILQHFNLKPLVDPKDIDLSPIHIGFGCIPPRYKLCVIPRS
RESULT TYPE: pIC50
Note on units: pIC50 is unitless, being -log10 of a concentration expressed in mol/L.

Lab entry: CYP2E1 (Homo sapiens) assay, compound Nc1ccncc1F [3F4AP, 3-fluoro-4-aminopyridine] , pIC50 = 4.81
